# targetDesc: T1, CRF2R; note: reference of the scale not given here
# T1 sequence (Q13324 whole entry, species assumed, looked up): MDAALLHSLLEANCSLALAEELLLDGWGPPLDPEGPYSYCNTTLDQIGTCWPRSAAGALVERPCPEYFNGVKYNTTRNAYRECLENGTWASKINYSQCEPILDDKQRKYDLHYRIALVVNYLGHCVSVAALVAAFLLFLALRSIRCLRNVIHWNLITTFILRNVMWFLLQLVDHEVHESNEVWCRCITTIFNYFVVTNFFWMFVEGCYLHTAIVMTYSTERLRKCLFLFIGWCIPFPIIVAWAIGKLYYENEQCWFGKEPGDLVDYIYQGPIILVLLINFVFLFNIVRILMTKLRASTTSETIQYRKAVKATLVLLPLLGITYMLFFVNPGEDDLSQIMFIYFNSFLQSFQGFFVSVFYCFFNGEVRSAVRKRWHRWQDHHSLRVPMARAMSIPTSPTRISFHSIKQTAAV
# protocolDescription: cell-based or functional assay
Ends that are not written are not given here.
Outcome: label 1 for CRF2R Emax % of at least 90%; label 0 for anything lower.

For orientation, consider the following solved cases.
ZGPPISIDLPAALLRKMIEIEKQEKEKQQAANNRLLLDTI (C-terminal amide) [SEQ ID NO 303]    label 1
NDDPPISIDLPFFLLRNMIEMARIENEREQAGLNAKYLAEV-NH2 [SEQ ID NO 264]    label 0
HHHHHHIVLSLDVPIGLLQILLEQARARAAREQATTNARILARN-NH2 [SEQ ID NO 296]    label 0

Lookup: Evaluate NDDPPISIDLPLILLRNMIEMARIENEREQAGLNAKYLAEV-NH2 [SEQ ID NO 269] : CRF2R Emax % at minimum 90%?
Found: label 0

Lookup: # check: CRF2R Emax % of ZGPPISIDLPFQLLRKVIEIEKQEKEKQQAANNAKLLAKI (not fully specified; C-terminal amide) [SEQ ID NO 274] is greater than or equal to 90%
Found: label 1

Lookup: Could you verify whether the entry ZGPPISIDLPTYLLRKMIEIEKQEKEKQQAANNALLLATI (C-terminal amide) [SEQ ID NO 233] shows CRF2R Emax % of no less than 90%?
Found: label 1

Lookup: Would you say ZGPPISIDLPFQLLRKAIEIEKQEKEKQQAANNALLLATI (C-terminal amide) [SEQ ID NO 364] shows CRF2R Emax % at minimum 90%?
Found: label 1

Lookup: hey, is CRF2R Emax % for this one >= 90%? NDDPPISIDLPLFLLRNMIEMARIENEREQAGLNAKYLAEV-NH2 [SEQ ID NO 257]
Found: label 0

Lookup: Is the recorded value of CRF2R Emax % equal to or greater than 90% for this binder? PSLSIDLPLLLLRTLLELEKTQSQRERAEQNARIFARV-NH2 [SEQ ID NO 333]
Found: label 1

Lookup: Assess whether reported CRF2R Emax % for ZGPPISIDLPLHLLRKMIEIEKQEKEKQQAANNALLLDTI (C-terminal amide) [SEQ ID NO 240] sits at 90% or higher.
Found: label 1

Lookup: Say whether DNPSLSIDLPLILLRTLLELARTQSQRERAEQNARIFARV-NH2 [SEQ ID NO 330] shows CRF2R Emax % of 90% or more.
Found: label 1

Lookup: Please tell me: is the binder NDDPPISIDLPLLLLRNMIEMARIENEREQAGLNAKYLAEV-NH2 [SEQ ID NO 268] at or over 90% in terms of CRF2R Emax %?
Found: label 0

Lookup: # check: CRF2R Emax % of ZGPPISIDLPFQLLRKMIEIEKQEKEKQQAANNALLLDTI (C-terminal amide) [SEQ ID NO 251] is greater than or equal to 90%
Found: label 1

Lookup: Exam item: decide whether the reported CRF2R Emax % for ZGPPISIDLPQILLRKVIEIEKQEKEKQQAANNRLLLDTI (C-terminal amide) [SEQ ID NO 293] is at least 90%.
Found: label 0

Values compiled from patent US20030148958A1.
